test: Phase 1a single ascending dose study: UV-4 plasma concentrations and PK parameters (LC-MS/MS, noncompartmental); assay type: in vivo; details: both sexes, human, plasma, po, 90 mg, 90 mg single oral dose; Geo Mean; read-out: Cmax
Metric name: Cmax (ng/mL)
Answer format: numeric, ng/mL implied, no suffix.

Any idea what its Cmax is? The compound is COCCCCCCCCCN1C[C@H](O)[C@@H](O)[C@H](O)[C@H]1CO
900

====

experiment: Phase 1a single ascending dose study: UV-4 plasma concentrations and PK parameters (LC-MS/MS, noncompartmental); format: in vivo; conditions: both sexes, human, plasma, po, 180 mg, 180 mg single oral dose; Arithmetic Mean; read-out: AUC(0-inf)
Metric name: AUC(0-inf) (ng·h/mL)
Answer format: numeric, ng·h/mL implied, no suffix.

Any idea what its AUC(0-inf) is? The molecule is COCCCCCCCCCN1C[C@H](O)[C@@H](O)[C@H](O)[C@H]1CO [UV-4, N-(9’-methoxynonyl)-1-deoxynojirimycin]
7110

====

Assay: Phase 1a single ascending dose study: UV-4 in pooled urine, urinary recovery and renal clearance
Type: in vivo, human
Settings: both sexes, human, urine, po, 10 mg, 10 mg single oral dose; Geo Mean
Procedure: Serial blood samples were collected at pre-dose (0 hour) and 0.5, 1, 1.5, 2, 2.5, 3, 4, 6, 9, 12, 18, 24, 36, and 48 hours post-dose for assessment of UV-4 concentrations in plasma. […] Plasma and urine concentrations of UV-4 were determined by means of validated, sensitive, and specific high-performance liquid chromatography/tandem mass spectrometric (LC-MS/MS) assays. […] Additional UV-4 PK parameters may be calculated at the discretion of the […]
Metric name: CL renal (mL/min)
Answer format: numeric, mL/min implied, no suffix.

Any idea what its CL renal is? The compound is COCCCCCCCCCN1C[C@H](O)[C@@H](O)[C@H](O)[C@H]1CO [UV-4B]
190

====

experiment: Phase 1a single ascending dose study: UV-4 plasma concentrations and PK parameters (LC-MS/MS, noncompartmental); assay type: in vivo; conditions: both sexes, human, plasma, po, 30 mg, 30 mg single oral dose; Ar Mean; read-out: Vz/F
Metric name: Vd/F (L)
Answer format: numeric, L implied, no suffix.

Any idea what its Vd/F is? The compound is COCCCCCCCCCN1C[C@H](O)[C@@H](O)[C@H](O)[C@H]1CO [UV-4B]
349

====

assay: Phase 1a single ascending dose study: UV-4 plasma concentrations and PK parameters (LC-MS/MS, noncompartmental); type: in vivo; settings: both sexes, human, plasma, po, 720 mg, 720 mg single oral dose; Geo Mean; read-out: Vz/F
Metric name: Vd/F (L)
Answer format: numeric, L implied, no suffix.

Any idea what its Vd/F is? The molecule is COCCCCCCCCCN1C[C@H](O)[C@@H](O)[C@H](O)[C@H]1CO
259

====

assay: Phase 1a single ascending dose study: UV-4 plasma concentrations and PK parameters (LC-MS/MS, noncompartmental); format: in vivo; details: both sexes, human, plasma, oral, 3 to 1000 mg UV-4 dose range; read-out: Median time to reach maximum plasma concentration (tmax), range across dose groups
Metric name: Tmax

Any idea what its Tmax is? The compound is COCCCCCCCCCN1C[C@H](O)[C@@H](O)[C@H](O)[C@H]1CO
30 to 60 min
